- testMethodNotes: Hydroxyl radical OH• scavenging, deoxyribose protection test (Halliwell method)
- measurementConditions: rate constant of S on OH•; mean (± SD) of 3 independent experiments
Square brackets hold non-standard residues; d marks the D form. Peptide text beside a SMILES is read from it. ξ: configuration not given here. ξM = CSCCC(N)C(=O)O
Recorded constante de vitesse de piégeage, one value per entry.

Solved cases below.
CCOC(=O)[C@@H](NC(=O)[C@H](CCCNC(=N)N)NC(C)=O)[C@@H](C)CC [NAc-L-ARG-L-ILE-OEt] (Ac-Arg-Ile-OEt)    6,1 (±0,4)x10^9 M^-1.S^-1
CCOC(=O)[C@H](CCCNC(=N)N)NC(=O)C(CCSC)NC(C)=O (stereo partly drawn) [NAc-(D,L)-MET-L-ARG-OEt] (Ac-[ξM]-Arg-OEt)    0,7 (±0,2)x10^10 M^-1.S^-1
CCOC(=O)[C@H](CCCNC(=N)N)NC(=O)[C@H](Cc1c[nH]cn1)NC(C)=O [NAc-L-HIS-L-ARG-OEt] (Ac-His-Arg-OEt)    9,0 (±0,2)x10^9 M^-1.S^-1
N=C(N)NCCC[C@H](N)C(=O)O [L-arginine]    1,5 (±0,2)x10^9 M^-1.S^-1
N[C@@H](Cc1c[nH]cn1)C(=O)O [L-histidine, reference compound]    2,5 (±0,2)x10^9 M^-1.S^-1
CCOC(=O)[C@H](CCCNC(=N)N)NC(=O)[C@H](Cc1ccc(O)cc1)NC(C)=O [NAc-L-TYR-L-ARG-OEt]    8,1 (±0,3)x10^9 M^-1.S^-1

Would you kindly look at the next entry?
Asked: constante de vitesse de piégeage for CCOC(=O)[C@H](CCCNC(=N)N)NC(C)=O [NAc-L-ARG-OEt, N-acetyl-L-arginine ethyl ester] ?
Given back: 5,2 (±0,2)x10^9 M^-1.S^-1
